# Test system: Macaca fascicularis
# EXPERIMENTAL DETAILS: Oral bioavailability in monkey at 30 mg/kg
# SETTINGS: cynomolgus monkey, in vivo
ASSAY METRIC: bioavailability (%)
Record the value in %, omitting the unit from your answer.

## Input Entry Cc1cc(C(F)(F)F)c(-c2ccc(C[C@H](NC(=O)c3c(Cl)cccc3Cl)C(=O)OCCCN3CCOCC3)cc2)c(=O)n1C has what bioavailability?
## Output 46

----------
# EXPERIMENTAL DETAILS: Stability in simulated intestinal fluid at pH 7.5 assessed as half life
# Assay type: physicochemical
# SETTINGS: simulated intestinal fluid
ASSAY METRIC: half-life (h)
Write the number in h without appending the unit.

## Input # half-life lookup, item CCN(CC)CCOC(=O)[C@H](Cc1ccc(-c2c(C(F)(F)F)cc(C)n(C)c2=O)cc1)NC(=O)c1c(Cl)cccc1Cl
## Output 0.5

API: the following record is the query input.
## Input Look up half-life: Cc1cc(C(F)(F)F)c(-c2ccc(C[C@H](NC(=O)c3c(Cl)cccc3Cl)C(=O)OCCN3CCOCC3)cc2)c(=O)n1C
## Output 4

----------
# EXPERIMENTAL DETAILS: Solubility in simulated gastric fluid at pH 2.0
# Type: physicochemical
# SETTINGS: simulated gastric fluid, read-out: solubility
ASSAY METRIC: solubility (µg/mL)
Give your result in µg/mL as a bare value.

Known results for compounds:
## Input Query (compound): Cc1cc(C(F)(F)F)c(-c2ccc(C[C@H](NC(=O)c3c(Cl)cccc3Cl)C(=O)OCC(O)CO)cc2)c(=O)n1C (stereo partly specified) ; field requested: solubility
## Output 190

## Input solubility lookup needed for Cc1cc(C(F)(F)F)c(-c2ccc(C[C@H](NC(=O)c3c(Cl)cccc3Cl)C(=O)OCC3CCOC3)cc2)c(=O)n1C (stereo partly specified) , thanks.
## Output 0.03

## Input Can you look up the measured solubility of Cc1cc(C(F)(F)F)c(-c2ccc(C[C@H](NC(=O)c3c(Cl)cccc3Cl)C(=O)OCCCN3CCOCC3)cc2)c(=O)n1C for me?
## Output 3900

Others:
## Input What does the data say about its solubility? Entry: Cc1cc(C(F)(F)F)c(-c2ccc(C[C@H](NC(=O)c3c(Cl)cccc3Cl)C(=O)OCC(=O)N(C)C)cc2)c(=O)n1C
## Output 0.8

----------
# Test system: Canis familiaris
# EXPERIMENTAL DETAILS: Cmax in dog at 50 mg/kg, po
# Type: ADME, organism-based, Canis lupus familiaris
# Design: dose 50 mg/kg, route oral
# SETTINGS: in vivo
ASSAY METRIC: Cmax (ng/mL)
Please give a number only; it is taken to be in ng/mL.

## Input So what's the measured Cmax for this one? Cc1cc(C(F)(F)F)c(-c2ccc(C[C@H](NC(=O)c3c(Cl)cccc3Cl)C(=O)OCCCN3CCOCC3)cc2)c(=O)n1C
## Output 2400
